- SYSTEM TESTED: Grasp55 PDZI′ (1-107), yeast two-hybrid construct (murine, UniProt Q99JX3 1-107)
- TEST NAME: yeast two-hybrid, growth on selective medium

>  <BINDER>
ADAM17 C-terminal sequence, yeast two-hybrid construct (other, not shown: Gal4 domain of the two-hybrid vector) CVDKKLDKQYESLSLFHHSNIEMLSSMDSASVRIIKPFPAPQTPGRLQALQPAAMMPPVSAAPKLDHQRMDTIQEDPSTDSHVDDDGFEKDPFPNSSTAAKSFEDLTDHPVTRSEKAASFKLQRQSRVDSKETEC

>  <binding result>
no binding

$$$$
>  <BINDER>
ADAM10 C-terminal sequence, yeast two-hybrid construct (other, not shown: Gal4 domain of the two-hybrid vector) FIKICSVHTPSSNPKLPPPKPLPGTLKRRRPPQPIQQPPRQRPREYQMGHMRR

>  <binding result>
no binding

$$$$
>  <BINDER>
ICCAYRRGCFISSKQDGESYKSPGKHDGVNYIRTSEEGDFRHKSS (other, End at 307 worked out from 'deletion of the last three amino-acids' of 263-310; not shown: Gal4 domain of the two-hybrid vector) [JAM-C ΔPDZbm, yeast two-hybrid construct lacking the last three amino-acids]

>  <binding result>
no binding

$$$$
>  <BINDER>
ICCAYRRGCFISSKQDGESYKSPGKHDGVNYIRTSEEGDFRHKSSFVI (other, also called JAM-C C-terminal region; not shown: Gal4 domain of the two-hybrid vector) [JAM-C cytoplasmic C-terminal construct, yeast two-hybrid]

>  <binding result>
binds

$$$$
